Source of measurements: patent US11667602B2

- Assay Details: Human Hepatocyte Stability (Test D)
- Format: in vitro ADME
- Assay Context: human, cryopreserved pooled human hepatocytes (LiverPool 10-Donor), geometric mean if run multiple times
Measure: hepatocyte CLint at 1 µM (µL/min/1e6 cells)

Observe how each entry below is paired with its result.
Report hepatocyte CLint at 1 µM for COc1cc(C#N)c(O[C@H]2CC[C@@](C)(C(=O)O)CC2)cc1C(=O)N[C@@H]1CCC[C@@H]1C(=O)NCC1(C)CCC1 [Example 360] please.
3.6

Report hepatocyte CLint at 1 µM for COc1cc(F)c(O[C@H]2CC[C@@H](C(=O)O)CC2)cc1C(=O)N[C@@H]1[C@H]2CC[C@H](C2)[C@@H]1C(=O)Nc1cccc(C(F)F)c1 [Example 10] please.
11

[I] COc1cc(F)c(-c2ccc(CCC(=O)O)nc2)cc1C(=O)N[C@@H]1[C@H]2CC[C@H](C2)[C@@H]1C(=O)Nc1cccc(S(=O)(=O)C(F)(F)F)c1 [Example 258]
[II] COc1cc(F)c(O[C@H]2CC[C@@H](C(=O)O)CC2)cc1C(=O)N[C@H]1[C@@H](C(=O)Nc2ccc(OC)c(S(=O)(=O)C(F)(F)F)c2)[C@@H]2C=C[C@H]1C2 [Example 497]
[III] COc1cc(F)c(Cc2cnn(CC(=O)O)c2)cc1C(=O)N[C@@H]1[C@H]2CC[C@H](C2)[C@@H]1C(=O)Nc1cccc(S(=O)(=O)C(F)(F)F)c1 [Example 220]
Rank the items in ascending order with respect to hepatocyte CLint at 1 µM. Reply with the item labels sorted in the order that was asked for.
II, III, I

[a] CC(C)Oc1cc(F)c(O[C@H]2CC[C@@](CO)(C(=O)O)CC2)cc1C(=O)N[C@@H]1[C@H]2CC[C@H](C2)[C@@H]1C(=O)NCC1(C)CCC1 [Example 486]
[b] COc1cc(C#N)c(O[C@H]2CC[C@@](C)(C(=O)O)CC2)cc1C(=O)N[C@@H]1[C@H]2CC[C@H](C2)[C@@H]1C(=O)NC(C)(C)CF [Example 77]
Form: Entry with minimum hepatocyte CLint at 1 µM (choose one): a / b Respond using the label that marks the chosen record.
b
(b: 3.7 µL/min/1e6 cells, a: 22 µL/min/1e6 cells)

[P] COc1cc(F)c(O[C@H]2CC[C@@](C)(C(=O)O)CC2)cc1C(=O)Nc1ccccc1C(=O)NCC(C)(C)C [Example 142]
[Q] COc1cc(F)c(-c2ccc(C(=O)O)cc2)cc1C(=O)N[C@H]1[C@@H](C(=O)Nc2cccc(S(=O)(=O)C(F)(F)F)c2)[C@@H]2C=C[C@H]1C2 (single isomer, unassigned) [Example 552]
Form: Entry with minimum hepatocyte CLint at 1 µM (choose one): P / Q Respond using the label that marks the chosen record.
P

----------
- Subject Of Test: human RXFP1 (Homo sapiens)
- Sequence (Q9HBX9 whole entry): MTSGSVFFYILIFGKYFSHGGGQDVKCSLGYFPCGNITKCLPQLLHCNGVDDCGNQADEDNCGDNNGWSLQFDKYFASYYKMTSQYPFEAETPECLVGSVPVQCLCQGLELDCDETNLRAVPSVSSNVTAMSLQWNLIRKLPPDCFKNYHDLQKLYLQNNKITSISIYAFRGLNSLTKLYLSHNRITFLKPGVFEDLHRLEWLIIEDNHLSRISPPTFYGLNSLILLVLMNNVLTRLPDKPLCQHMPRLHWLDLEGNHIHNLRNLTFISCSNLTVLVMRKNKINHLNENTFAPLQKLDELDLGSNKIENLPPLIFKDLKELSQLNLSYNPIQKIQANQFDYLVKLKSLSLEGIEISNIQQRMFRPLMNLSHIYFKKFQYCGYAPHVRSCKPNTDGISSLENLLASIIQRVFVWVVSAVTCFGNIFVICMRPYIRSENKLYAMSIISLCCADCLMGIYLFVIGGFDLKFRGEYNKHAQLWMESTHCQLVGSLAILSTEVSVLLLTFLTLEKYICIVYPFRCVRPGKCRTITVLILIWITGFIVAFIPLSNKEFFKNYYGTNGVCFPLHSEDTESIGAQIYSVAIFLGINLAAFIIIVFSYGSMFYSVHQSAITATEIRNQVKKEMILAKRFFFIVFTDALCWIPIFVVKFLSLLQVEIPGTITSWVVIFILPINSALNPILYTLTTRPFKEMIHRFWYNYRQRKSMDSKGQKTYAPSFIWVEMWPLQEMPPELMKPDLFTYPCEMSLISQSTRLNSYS
- Assay Details: RXFP1 Hu cAMP (Test A)
- Format: cell-based
- Parameters: expressed in transfected cells; host or cells: Jump-In T-REx CHO-K1 cells (ThermoFisher), induced with 10 ng/ml doxycycline for 24 h
- Assay Context: RXFP1 Hu cAMP; read-out: Test A EC50
pEC50: −log10 of the molar value.
Measure: pEC50

Report pEC50 for COc1cc(F)c(O[C@H]2C[C@@](C)(C(=O)O)C2)cc1C(=O)N[C@@H]1[C@@H]2CC[C@@H](C2)[C@@H]1C(=O)Nc1cccc(S(=O)(=O)C(F)(F)F)c1 please.
7.85

[P] COc1cc(F)c(O[C@H]2CC[C@@](C)(C(=O)O)CC2)cc1C(=O)N[C@@H]1CCC[C@@H]1C(=O)NCC1(CF)CC1
[Q] COc1cc(F)c(O[C@H]2CC[C@@H](C(=O)O)CC2)cc1C(=O)N[C@@H]1[C@H]2CC[C@H](C2)[C@@H]1C(=O)Nc1ccc(Cl)c(C(F)(F)F)c1
Form: Entry with minimum pEC50 (choose one): P / Q Respond using the label that marks the chosen record.
P
